// provenance: ChEMBL document CHEMBL1124328

test: Dissociation constant of the compound; assay type: physicochemical
Measurement label: pKa

Cc1ccc([N+](=O)[O-])c2c(NCCCN(C)C)c3ccccc3nc12
6.29
CN(C)CCCNc1c2ccccc2nc2c(F)ccc([N+](=O)[O-])c12
5.41
COc1ccc([N+](=O)[O-])c2c(NCCCN(C)C)c3ccccc3nc12
6.61
CN(C)CCCNc1c2ccccc2nc2cccc([N+](=O)[O-])c12
6.21
CN(C)CCCNc1c2ccccc2nc2c(Cl)ccc([N+](=O)[O-])c12
5
CC(=O)OCCN(CCOC(C)=O)c1ccc([N+](=O)[O-])c2c(NCCCN(C)C)c3ccccc3nc12
6.2
CN(C)CCCNc1c2ccccc2nc2c(N(C)C)ccc([N+](=O)[O-])c12
6.47
CN(C)CCCNc1c2ccccc2nc2c(N(CCO)CCO)ccc([N+](=O)[O-])c12
6.53

* * *

assay: Compound''s one-electron reduction potential (E(1)) has been measured by radiolysis at pH 7
Measurement label: E (mV)

CN(C)CCCNc1c2ccccc2nc2c(F)ccc([N+](=O)[O-])c12
-354
Cc1ccc([N+](=O)[O-])c2c(NCCCN(C)C)c3ccccc3nc12
-321
COc1ccc([N+](=O)[O-])c2c(NCCCN(C)C)c3ccccc3nc12
-361
CN(C)CCCNc1c2ccccc2nc2cccc([N+](=O)[O-])c12
-303
CN(C)CCCNc1c2ccccc2nc2c(Cl)ccc([N+](=O)[O-])c12
-325
COC(=O)c1ccc([N+](=O)[O-])c2c(NCCCN(C)C)c3ccccc3nc12
-244
CN(C)CCCNc1c2ccccc2nc2c(N(C)C)ccc([N+](=O)[O-])c12
-334
CC(=O)OCCN(CCOC(C)=O)c1ccc([N+](=O)[O-])c2c(NCCCN(C)C)c3ccccc3nc12
-314

* * *

assay: Relative lipophilicity of the compound; assay type: physicochemical; details: octanol/water
Measurement label: Rm

Study these solved cases before continuing.
CN(C)CCCNc1c2ccccc2nc2cccc([N+](=O)[O-])c12 [NITRACRINE]
-0.85
COc1ccc([N+](=O)[O-])c2c(NCCCN(C)C)c3ccccc3nc12
-0.88
CC(=O)OCCN(CCOC(C)=O)c1ccc([N+](=O)[O-])c2c(NCCCN(C)C)c3ccccc3nc12
-0.29
CN(C)CCCNc1c2ccccc2nc2c(N(CCO)CCO)ccc([N+](=O)[O-])c12
-0.74
CN(C)CCCNc1c2ccccc2nc2c(N(C)C)ccc([N+](=O)[O-])c12
-0.63

(1) Cc1ccc([N+](=O)[O-])c2c(NCCCN(C)C)c3ccccc3nc12
(2) CN(C)CCCNc1c2ccccc2nc2c(Cl)ccc([N+](=O)[O-])c12
(3) CN(C)CCCNc1c2ccccc2nc2c(F)ccc([N+](=O)[O-])c12
Hey, quick one: sort these by Rm, low to high? State the ranking by listing the labels in the requested order.
1, 3, 2
(1: -0.76, 3: -0.46, 2: -0.25)

* * *

assay: Cytotoxicity was measured under aerobic conditions by the clonogenic assay against Chinese hamster ovary (subline AA8) cells; assay type: cell-based, Cricetulus griseus; design: unit not given here
# CT10 values compiled below
Answer with a bare number; do not write a unit.

CC(=O)OCCN(CCOC(C)=O)c1ccc([N+](=O)[O-])c2c(NCCCN(C)C)c3ccccc3nc12
575
CN(C)CCCNc1c2ccccc2nc2c(F)ccc([N+](=O)[O-])c12
2
COC(=O)c1ccc([N+](=O)[O-])c2c(NCCCN(C)C)c3ccccc3nc12
8

Query molecule follows.
CT10 for "CN(C)CCCNc1c2ccccc2nc2c(Cl)ccc([N+](=O)[O-])c12" ?
0.68

* * *

Measured Log K, listed per entry for reference.
system: Nucleic Acid; assay: Logarithm of association constant for binding to poly[d(A-T)], determined by ethidium displacement; type: nucleic-acid assay

Cc1ccc([N+](=O)[O-])c2c(NCCCN(C)C)c3ccccc3nc12
7.23 M-1
COc1ccc([N+](=O)[O-])c2c(NCCCN(C)C)c3ccccc3nc12
6.76 M-1
CN(C)CCCNc1c2ccccc2nc2c(F)ccc([N+](=O)[O-])c12
6.15 M-1

Let us move to another entry and its Log K.
Quick check: Log K of "CN(C)CCCNc1c2ccccc2nc2c(N(C)C)ccc([N+](=O)[O-])c12" ?
7.11 M-1

* * *

assay: Compound's one-electron reduction potential (E(1)) has been measured by radiolysis at pK1
Measurement label: E (mV)

CN(C)CCCNc1c2ccccc2nc2cccc([N+](=O)[O-])c12
-270
COc1ccc([N+](=O)[O-])c2c(NCCCN(C)C)c3ccccc3nc12
-346
CN(C)CCCNc1c2ccccc2nc2c(F)ccc([N+](=O)[O-])c12
-277
CN(C)CCCNc1c2ccccc2nc2c(N(C)C)ccc([N+](=O)[O-])c12
-314

(A) Cc1ccc([N+](=O)[O-])c2c(NCCCN(C)C)c3ccccc3nc12
(B) COC(=O)c1ccc([N+](=O)[O-])c2c(NCCCN(C)C)c3ccccc3nc12
Please indicate which has the smaller reported E: A , or B . // caller expects the label of the chosen entry
A

* * *

experiment: Cytotoxicity was measured under aerobic conditions by the clonogenic assay against Chinese hamster ovary (subline AA8) cells; format: cell-based, Cricetulus griseus; parameters: unit not given here
Recorded measurements of CT10, one per entry
API note: the answer field is a bare number with no unit suffix.

Consider the worked cases shown below.
Cc1ccc([N+](=O)[O-])c2c(NCCCN(C)C)c3ccccc3nc12
2
CN(C)CCCNc1c2ccccc2nc2c(N(C)C)ccc([N+](=O)[O-])c12
720
CN(C)CCCNc1c2ccccc2nc2cccc([N+](=O)[O-])c12 [NITRACRINE]
0.47
CN(C)CCCNc1c2ccccc2nc2c(N(CCO)CCO)ccc([N+](=O)[O-])c12
540

Would you mind telling me what CT10 value was observed for "COc1ccc([N+](=O)[O-])c2c(NCCCN(C)C)c3ccccc3nc12" ?
22

* * *

// selectivity ratio lookup, one value per entry
experiment: Ratio of cytotoxicity determined in air to that of cytotoxicity determined in N2 was measured under aerobic conditions to hypoxic conditions by the clonogenic assay against Chinese hamster ovary (subline AA8) cells; format: cell-based, Cricetulus griseus; settings: subline AA8 (CHO-AA8)
Answer with a number only.

CN(C)CCCNc1c2ccccc2nc2c(F)ccc([N+](=O)[O-])c12
5.3
COC(=O)c1ccc([N+](=O)[O-])c2c(NCCCN(C)C)c3ccccc3nc12
0.32
CN(C)CCCNc1c2ccccc2nc2cccc([N+](=O)[O-])c12
9.9

Item "CN(C)CCCNc1c2ccccc2nc2c(N(C)C)ccc([N+](=O)[O-])c12" has what recorded selectivity ratio?
16

Fill blank: measured selectivity ratio of the molecule "CC(=O)OCCN(CCOC(C)=O)c1ccc([N+](=O)[O-])c2c(NCCCN(C)C)c3ccccc3nc12" is ____.
11.5

Give its selectivity ratio value. Item: "CN(C)CCCNc1c2ccccc2nc2c(N(CCO)CCO)ccc([N+](=O)[O-])c12"
6

Recorded selectivity ratio for "COc1ccc([N+](=O)[O-])c2c(NCCCN(C)C)c3ccccc3nc12" , please?
16

# get_value(readout='selectivity ratio', item= "Cc1ccc([N+](=O)[O-])c2c(NCCCN(C)C)c3ccccc3nc12" )
10

selectivity ratio lookup needed for "CN(C)CCCNc1c2ccccc2nc2c(Cl)ccc([N+](=O)[O-])c12" , thanks.
13.6

* * *

system: Nucleic Acid; test: Logarithm of association constant for binding to poly[d(A-T)], determined by ethidium displacement; format: nucleic-acid assay
Measurement label: Log K

The cases that follow already have their Log K on record.
CC(=O)OCCN(CCOC(C)=O)c1ccc([N+](=O)[O-])c2c(NCCCN(C)C)c3ccccc3nc12
6.5 M-1
CN(C)CCCNc1c2ccccc2nc2c(Cl)ccc([N+](=O)[O-])c12
5.95 M-1
COC(=O)c1ccc([N+](=O)[O-])c2c(NCCCN(C)C)c3ccccc3nc12
6.06 M-1

# evaluate next
Returns the measured Log K for the input compound. Input: "CN(C)CCCNc1c2ccccc2nc2cccc([N+](=O)[O-])c12"
6.92 M-1
